Source of measurements: ChEMBL document CHEMBL2046332

Test system: Mycobacterium tuberculosis
methodDescription: Binding affinity to Mycobacterium tuberculosis CYP142A1 assessed as type 1 binding mode at 0.05 to 0.2 uM by UV-visible spectrophotometry
The source made the active and inactive calls. The calls are words filed in the database; no cut-off is given here.
readoutKind: Activity

{"columns": ["molecule", "observedMeasurement"],
 "data": [
  ["CC=C(C)CCC[C@@H](C)[C@H]1CC[C@H]2[C@@H]3CC=C4C[C@@H](O)CC[C@]4(C)[C@H]3CC[C@]12C (mixture of isomers)", "Active"],
  ["CC(C)CCC[C@@H](C)[C@H]1CC[C@H]2[C@@H]3CCC4=CC(=O)CC[C@]4(C)[C@H]3CC[C@]12C", "Active"],
  ["C=CCCC[C@@H](C)[C@H]1CC[C@H]2[C@@H]3CC=C4C[C@@H](O)CC[C@]4(C)[C@H]3CC[C@]12C", "Active"]
]}
